Each entry below carries its recorded pKd.
molecular target: UniProt:A0A1B6Q2C2; experiment: microscale thermophoresis; type: binding
Sequence (A0A1B6Q2C2 198-685): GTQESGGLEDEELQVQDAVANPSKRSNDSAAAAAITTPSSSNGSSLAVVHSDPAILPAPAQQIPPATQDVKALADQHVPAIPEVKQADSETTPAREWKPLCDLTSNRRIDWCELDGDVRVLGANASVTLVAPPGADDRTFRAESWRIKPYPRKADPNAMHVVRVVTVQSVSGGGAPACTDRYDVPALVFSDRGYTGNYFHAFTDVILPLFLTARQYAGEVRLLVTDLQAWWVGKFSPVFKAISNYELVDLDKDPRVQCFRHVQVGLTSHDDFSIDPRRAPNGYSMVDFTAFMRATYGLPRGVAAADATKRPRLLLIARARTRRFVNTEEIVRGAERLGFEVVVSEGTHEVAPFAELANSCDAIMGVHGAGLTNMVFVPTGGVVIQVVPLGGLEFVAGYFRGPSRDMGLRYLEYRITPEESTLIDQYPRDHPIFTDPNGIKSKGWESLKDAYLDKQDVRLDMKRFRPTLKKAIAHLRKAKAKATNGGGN
# reply with the number alone; pKd is -log10 of concentration in mol/L

[
  {
    "input smiles": "O=c1ccn([C@@H]2O[C@H](COP(=O)(O)OP(=O)(O)O[C@H]3OC[C@@H](O)[C@H](O)[C@H]3O)[C@@H](O)[C@H]2O)c(=O)[nH]1",
    "meas value": 3.43
  }
]

For the compound shown here, `O=c1ccn([C@@H]2O[C@H](COP(=O)(O)OP(=O)(O)O[C@H]3O[C@@H](CO)[C@H](O)[C@H]3O)[C@@H](O)[C@H]2O)c(=O)[nH]1` , give the reported pKd.
3.61

----------
Target: SbXXT (Sb2G401600) (Sorghum bicolor, UniProt C5X460, Y462F)
Sequence (C5X460 93-554 Y462F): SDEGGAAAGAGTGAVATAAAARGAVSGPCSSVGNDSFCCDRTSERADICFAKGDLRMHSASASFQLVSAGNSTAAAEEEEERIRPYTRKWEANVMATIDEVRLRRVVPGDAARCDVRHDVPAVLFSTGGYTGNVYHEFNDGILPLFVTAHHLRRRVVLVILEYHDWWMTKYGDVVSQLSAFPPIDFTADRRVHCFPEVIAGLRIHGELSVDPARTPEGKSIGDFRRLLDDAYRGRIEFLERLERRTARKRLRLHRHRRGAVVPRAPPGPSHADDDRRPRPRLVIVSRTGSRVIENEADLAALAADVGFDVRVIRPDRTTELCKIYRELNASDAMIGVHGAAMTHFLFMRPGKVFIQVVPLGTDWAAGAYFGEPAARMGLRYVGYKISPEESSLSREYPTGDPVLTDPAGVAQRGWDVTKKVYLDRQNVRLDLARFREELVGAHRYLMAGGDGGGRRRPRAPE
Assay: microscale thermophoresis
measure name: Kd (µM)
Note: unit µM is implicit; provide only the numeric part.

[
  {
    "input smiles": "O=c1ccn([C@@H]2O[C@H](COP(=O)(O)OP(=O)(O)O[C@H]3O[C@@H](CO)[C@H](O)[C@H]3O)[C@@H](O)[C@H]2O)c(=O)[nH]1",
    "study target": "SbXXT (Sb2G401600) (Sorghum bicolor, UniProt C5X460, Y462F)",
    "Kd (µM)": 19
  }
]

Requested read-out: Kd. Entry: `O=c1ccn([C@@H]2O[C@H](COP(=O)(O)OP(=O)(O)O[C@H]3OC[C@@H](O)[C@H](O)[C@H]3O)[C@@H](O)[C@H]2O)c(=O)[nH]1`
15

----------
# pKd per record follows
target: SbXXT (Sb2G401600) (Sorghum bicolor, UniProt C5X460)
Keep in mind that pKd stands for -log10 of concentration in molar terms.

Item `O=c1ccn([C@@H]2O[C@H](COP(=O)(O)OP(=O)(O)O[C@H]3O[C@@H](CO)[C@H](O)[C@H]3O)[C@@H](O)[C@H]2O)c(=O)[nH]1` has what recorded pKd?
4.59

// pKd lookup, key: `O=c1ccn([C@@H]2O[C@H](COP(=O)(O)OP(=O)(O)O[C@H]3OC[C@@H](O)[C@H](O)[C@H]3O)[C@@H](O)[C@H]2O)c(=O)[nH]1`
4.89
